molecular target: E3 SUMO-protein ligase CBX4 (Homo sapiens)
Sequence (O00257 whole entry): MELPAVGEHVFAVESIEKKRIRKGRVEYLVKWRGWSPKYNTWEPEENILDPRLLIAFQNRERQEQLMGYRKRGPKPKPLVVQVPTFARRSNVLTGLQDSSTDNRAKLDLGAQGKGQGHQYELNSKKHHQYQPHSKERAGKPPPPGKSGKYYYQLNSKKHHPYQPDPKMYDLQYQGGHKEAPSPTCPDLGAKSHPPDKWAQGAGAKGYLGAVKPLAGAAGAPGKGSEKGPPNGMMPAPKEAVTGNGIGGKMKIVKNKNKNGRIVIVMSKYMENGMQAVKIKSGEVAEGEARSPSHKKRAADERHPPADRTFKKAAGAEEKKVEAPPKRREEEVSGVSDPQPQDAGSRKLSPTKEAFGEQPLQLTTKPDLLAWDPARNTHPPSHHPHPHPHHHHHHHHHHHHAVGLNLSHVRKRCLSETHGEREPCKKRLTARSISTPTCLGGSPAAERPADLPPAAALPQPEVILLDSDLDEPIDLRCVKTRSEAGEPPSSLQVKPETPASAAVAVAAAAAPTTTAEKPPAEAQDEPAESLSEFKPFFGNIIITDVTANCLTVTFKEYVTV
Non-standard residues stand in square brackets, D forms with d. Residues, ends and D or L forms follow the SMILES beside them. *: point of attachment. X1 = O=C(O)c1cc(NC(=S)*)ccc1-c1c2ccc(=O)cc-2oc2cc(O)ccc12; Lys(Me3) = C[N+](C)(C)CCCC[C@H](N)C(=O)O; Gly(cPent) = N[C@H](C(=O)O)C1CCCC1; Abu = CC[C@H](N)C(=O)O; βAla = NCCC(=O)O
Assignment: determine reported Kd for the given compounds.
Value and unit, in that order.

CC[C@H](NC(=O)[C@H](Cc1ccccc1)NC(=O)[C@H](Cc1ccccc1)NC(C)=O)C(=O)N[C@H](C(=O)N[C@@H](CCCC[N+](C)(C)C)C(=O)N[C@@H](CO)C(=O)N[C@@H](CCC(=O)O)C(=O)N[C@@H](CCCCNC(=S)Nc1ccc(-c2c3ccc(=O)cc-3oc3cc(O)ccc23)c(C(=O)O)c1)C(N)=O)C1CCCC1 (Ac-FF[Abu][Gly(cPent)][Lys(Me3)]SEK(X1)-NH2) = 11.3 µM

Consider the compound shown here: CC(C)C[C@H](NC(=O)[C@H](C)NC(=O)[C@H](Cc1ccccc1)NC(=O)CCNC(=S)Nc1ccc(-c2c3ccc(=O)cc-3oc3cc(O)ccc23)c(C(=O)O)c1)C(=O)N[C@@H](CCCC[N+](C)(C)C)C(=O)N[C@@H](CO)C(N)=O ({X1-βAla}-FAL[Lys(Me3)]S-NH2) What is its recorded Kd?
0.8 µM

* * *

target: Chromobox protein homolog 1 (Homo sapiens, UniProt P83916); experiment: Binding affinity to CBX1 (unknown origin) assessed as dissociation constant by fluorescence polarization analysis
Sequence (P83916 whole entry): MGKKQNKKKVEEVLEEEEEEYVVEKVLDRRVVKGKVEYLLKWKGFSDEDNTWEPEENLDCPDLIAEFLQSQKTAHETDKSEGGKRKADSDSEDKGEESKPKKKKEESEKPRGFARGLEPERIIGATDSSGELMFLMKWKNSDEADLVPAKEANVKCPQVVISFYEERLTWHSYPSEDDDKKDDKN
Non-standard residues stand in square brackets, D forms with d. Residues, ends and D or L forms follow the SMILES beside them. *: point of attachment. X1 = O=C(O)c1cc(NC(=S)*)ccc1-c1c2ccc(=O)cc-2oc2cc(O)ccc12; Lys(Me3) = C[N+](C)(C)CCCC[C@H](N)C(=O)O; Benzoyl(4-Br) = O=C(c1ccc(Br)cc1)*; Gly(cPent) = N[C@H](C(=O)O)C1CCCC1; Abu = CC[C@H](N)C(=O)O; βAla = NCCC(=O)O
measurementKind: pKd
One number for each entry, as −log10 of the molar value.

Would you please look over these solved cases?
CC[C@H](NC(=O)[C@H](Cc1ccccc1)NC(=O)[C@H](Cc1ccccc1)NC(C)=O)C(=O)N[C@H](C(=O)N[C@@H](CCCC[N+](C)(C)C)C(=O)N[C@@H](CO)C(=O)N[C@@H](CCC(=O)O)C(=O)N[C@@H](CCCCNC(=S)Nc1ccc(-c2c3ccc(=O)cc-3oc3cc(O)ccc23)c(C(=O)O)c1)C(N)=O)C1CCCC1 (Ac-FF[Abu][Gly(cPent)][Lys(Me3)]SEK(X1)-NH2) = 4.00
CC(C)C[C@H](NC(=O)[C@H](C)NC(=O)[C@H](Cc1ccccc1)NC(=O)[C@H](Cc1ccccc1)NC(=O)CCNC(=S)Nc1ccc(-c2c3ccc(=O)cc-3oc3cc(O)ccc23)c(C(=O)O)c1)C(=O)N[C@@H](CCCC[N+](C)(C)C)C(=O)N[C@@H](CO)C(N)=O ({X1-βAla}-FFAL[Lys(Me3)]S-NH2) = 4.33

# input for lookup
Consider the compound shown here: C[C@H](NC(=O)[C@H](Cc1ccccc1)NC(=O)c1ccc(Br)cc1)C(=O)N[C@@H](Cc1ccc(O)cc1)C(=O)N[C@@H](CCCC[N+](C)(C)C)C(=O)N[C@@H](CO)C(=O)N[C@@H](CCC(=O)O)C(=O)N[C@@H](CCCCNC(=S)Nc1ccc(-c2c3ccc(=O)cc-3oc3cc(O)ccc23)c(C(=O)O)c1)C(N)=O ({Benzoyl(4-Br)}-FAY[Lys(Me3)]SEK(X1)-NH2) What is its recorded pKd?
5.32
